target: Mtb DHFR (Mycobacterium tuberculosis); format: biochemical; conditions: read-out: Enzyme IC50 Mtb; purified Mtb DHFR
Sequence (P9WNX1 whole entry): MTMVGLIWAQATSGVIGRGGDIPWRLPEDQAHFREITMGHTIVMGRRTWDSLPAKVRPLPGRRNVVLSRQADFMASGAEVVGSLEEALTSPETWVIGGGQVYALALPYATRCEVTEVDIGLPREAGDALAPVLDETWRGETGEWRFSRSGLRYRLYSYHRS
observable: IC50
# number then unit; no other words

**Query** Given the molecule N#Cc1ccc(Cn2ccc3c4c(N)nc(N)nc4ccc32)cc1 , what is its reported IC50?
**Result** 10.1 nM

====

target: human DHFR (Homo sapiens); test: Biochemical assay of human DHFR; details: read-out: Enzyme IC50 Human; recombinant human DHFR
Sequence (P00374 whole entry): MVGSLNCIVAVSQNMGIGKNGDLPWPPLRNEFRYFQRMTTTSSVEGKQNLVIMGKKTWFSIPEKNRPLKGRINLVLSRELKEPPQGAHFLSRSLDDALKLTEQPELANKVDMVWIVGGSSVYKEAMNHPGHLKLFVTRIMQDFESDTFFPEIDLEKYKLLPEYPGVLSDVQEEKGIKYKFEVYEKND
observable: IC50 (nM)
Write the value in nM as a bare number.

**Query** Given the compound CC1(C)N=C(N)N=C(N)N1OCCCOc1cc(Cl)c(Cl)cc1Cl , what is its reported IC50?
**Result** 9
